Tested on: Mus musculus
Experiment: Gastrointestinal toxicity in Swiss albino mouse assessed as ulcerogenic effect at 100 mg/kg, po
Assay type: organism-based
Design: dose 100 mg/kg, route oral
Details: in vivo
property: Activity

# count of solved cases: 7
smiles_notation: COc1ccc(/C=N/NC(=O)Cn2nc(N3CCN(c4ccc(Cl)cc4)CC3)ccc2=O)cc1
Activity: Non-toxic

smiles_notation: Cc1ccc(/C=N/NC(=O)Cn2nc(N3CCN(c4ccc(Cl)cc4)CC3)ccc2=O)cc1
Activity: Non-toxic

smiles_notation: COc1ccc(/C=N/NC(=O)Cn2nc(N3CCN(c4cccc(Cl)c4)CC3)ccc2=O)cc1
Activity: Non-toxic

smiles_notation: COc1ccc2c(c1)c(CC(=O)O)c(C)n2C(=O)c1ccc(Cl)cc1
Activity: Toxic

smiles_notation: Cc1ccc(/C=N/NC(=O)Cn2nc(N3CCN(c4cccc(Cl)c4)CC3)ccc2=O)cc1
Activity: Non-toxic

smiles_notation: COc1ccc(/C=N/NC(=O)Cn2nc(N3CCN(c4ccccn4)CC3)ccc2=O)cc1
Activity: Non-toxic

smiles_notation: Cc1ccc(/C=N/NC(=O)Cn2nc(N3CCN(c4ccccn4)CC3)ccc2=O)cc1
Activity: Non-toxic

Here is the next item to consider.
Enquiry: For the record `CC(=O)Oc1ccccc1C(=O)O` , what value of Activity is listed for Mus musculus?
Return: Toxic
